Molecular target: LIGHT without residues 81-84, stably expressed on EL4 cells (EL4-NC-LIGHT)
Assay: cell-based or functional assay
Attribute: IC50, inhibition of IL-8 secretion, HT-29 + EL4-NC-LIGHT cells
All answers are understood in nM, so give the number only.

# count of solved cases: 2
3B04_var14 (antibody, V domains shown) VH: QVQLVQSGAEVKKPGASVKVSCKASGYTFTDYEMHWVRQAPGQGLEWIGEIDPETGDTAYSQKFQGRVTLTADKSTSTAYMEFSSLRSEDTAVYYCSRETDYFFDYWGQGTLVTVSS VL: DIQMTQSPSSLSASVGDRVTITCRASENIYGALNWYQQKPGKAPKLLIYGATNLAEGVPSRFSGSGSGRDYTLTISSLQPEDFATYYCQNVLTTPWTFGQGTKLEIKR : 0.05
3D12_var15 (antibody, V domains shown) VH: QVQLVQSGAEVKKPGASVKVSCKASDYTFTDSEIHWVRQAPGQGLEWMGEIDPETGGTAYAQKFQGRVTLTADKSTSTAYMELSSLRSEDTAVYYCSRETDYFFDYWGQGTLVTVSS VL: DIQMTQSPSSLSASVGDRVTITCRASENIYGALNWYQQKPGKAPKLLIYGATNLAEGVPSRFSGSGSGRDYTLTISSLQPEDVATYYCQNVLSTPWTFGQGTKLEIKR : 0.38

Now for the binder whose IC50, inhibition of IL-8 secretion, HT-29 + EL4-NC-LIGHT cells we want.
Could you share which IC50, inhibition of IL-8 secretion, HT-29 + EL4-NC-LIGHT cells value was measured for 3B04_var13 (antibody, V domains shown) VH: QVQLVQSGAEVKKPGASVKVSCKASGYTFTDYEMHWVRQAPGQGLEWIGEIDPETGDTAYSQKFKGRATLTADKSTSTAYMEFSSLRSEDTAVYYCSRETDYFFDYWGQGTLVTVSS VL: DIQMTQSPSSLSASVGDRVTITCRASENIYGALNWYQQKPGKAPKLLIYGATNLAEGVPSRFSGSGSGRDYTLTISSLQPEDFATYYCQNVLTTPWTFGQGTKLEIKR ?
0.04
